biological target: T1, 重组人CD40-his蛋白 (human, UniProt P25942 21-193); test: BLI (Fortebio Blitz), antibody on AMC sensor, huCD40-his 6.25-200 nM
T1 construct: extracellular domain; Recombinant protein; also called 人CD40(ECD)-his; huCD40-his; not shown: his tag
T1 sequence (P25942 21-193): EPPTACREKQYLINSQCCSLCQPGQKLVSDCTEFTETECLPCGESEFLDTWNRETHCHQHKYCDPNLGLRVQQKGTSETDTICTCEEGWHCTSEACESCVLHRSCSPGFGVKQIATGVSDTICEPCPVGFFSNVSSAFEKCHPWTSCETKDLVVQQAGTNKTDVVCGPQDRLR
observable: pKd
Give only the number. pKd is defined as minus log10 of concentration in molar units.

input: Any idea what its pKd is? The binder is 嵌合抗体C42 (antibody, human IgG1, kappa, V domains shown, Mouse-human chimeric IgG1/kappa expressed in Expi-293 cells; also called 42Chimeric; 抗体42D11-8的嵌合抗体) VH: QVQLKQSGPGLVQPSQSLSITCTVSGFSLTSYGVHWVRQSPGKGLEWLGMIWSGGSTDYNSAFISRLSISKDNFKSQVFFKMNSLQADDTAIYYCARVGGDYWGQGTTVTVSS VL: DIVITQTPLSLPVSLGDPASISCRSSQSLVHSRGNTYLHWFLQKPGQSPKLLIYKVSNRFSGVPDRFSGSGSGTDFTLRISRLEAEDLGVYFCFQTTHVPWTFGGGTKLEIKR
output: 7.87

src = patent CN115232210A
